Data origin: patent US20240109865A1

System: FGFR3-BAIAP2L1 Ba/F3 cells (Homo sapiens, UniProt P22607)
Sequence (P22607 23-806 limits assumed, change not shown): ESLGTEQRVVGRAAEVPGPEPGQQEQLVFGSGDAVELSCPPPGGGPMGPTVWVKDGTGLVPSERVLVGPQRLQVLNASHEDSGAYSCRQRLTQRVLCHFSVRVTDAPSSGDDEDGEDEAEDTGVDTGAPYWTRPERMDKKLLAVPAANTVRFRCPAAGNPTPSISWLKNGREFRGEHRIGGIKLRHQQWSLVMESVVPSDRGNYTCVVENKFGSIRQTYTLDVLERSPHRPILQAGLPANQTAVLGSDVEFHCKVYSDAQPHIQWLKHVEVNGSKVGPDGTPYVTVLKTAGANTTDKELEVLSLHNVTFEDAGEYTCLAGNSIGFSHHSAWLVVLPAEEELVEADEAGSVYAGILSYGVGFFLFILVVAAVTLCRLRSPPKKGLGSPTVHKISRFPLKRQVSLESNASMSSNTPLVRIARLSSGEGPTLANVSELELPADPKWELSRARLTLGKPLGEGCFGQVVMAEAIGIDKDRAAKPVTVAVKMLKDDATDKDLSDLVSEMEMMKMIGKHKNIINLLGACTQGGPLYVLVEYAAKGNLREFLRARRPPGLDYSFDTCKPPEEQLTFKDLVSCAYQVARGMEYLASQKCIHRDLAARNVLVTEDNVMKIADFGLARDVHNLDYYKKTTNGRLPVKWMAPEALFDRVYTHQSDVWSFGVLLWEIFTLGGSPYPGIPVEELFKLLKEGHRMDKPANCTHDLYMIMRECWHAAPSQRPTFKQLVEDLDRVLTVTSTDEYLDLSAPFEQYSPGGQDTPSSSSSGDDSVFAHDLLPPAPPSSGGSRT
Method Summary: Ba/F3 cell viability assay (CellTiter-Glo 2.0), FGFR3-BAIAP2L1 Ba/F3
Assay type: cell-based
Experimental Parameters: read-out: Ba/F3 Cells FGFR3 (IC50 nM); FGFR3-BAIAP2L1 Ba/F3 cells, 48 hours, Cell Titer Glo 2.0
Parameter: IC50

Guide cases for IC50, answers given:
Compound	System	IC50
COC(=O)N1CC2(C1)CN(c1ccc(-c3n[nH]c4ccc(O[C@H](C)c5c(Cl)cncc5Cl)cc34)cn1)C2 [Example 123]	FGFR3-BAIAP2L1 Ba/F3 cells (Homo sapiens, UniProt P22607)	1 to 20 nM
Cc1cnnc(C)c1[C@H](C)Oc1ccc2[nH]nc(-c3ccc(N4CC5(CCS(=O)(=O)C5)C4)nc3)c2c1 [Example 145]	FGFR3-BAIAP2L1 Ba/F3 cells (Homo sapiens, UniProt P22607)	> 300 nM
C[C@@H](Oc1ccc2[nH]nc(-c3cnc(N4CCC5(CC4)CCS(=O)(=O)C5)c(F)c3)c2c1)c1c(Cl)cncc1Cl [Example 77]	FGFR3-BAIAP2L1 Ba/F3 cells (Homo sapiens, UniProt P22607)	1 to 20 nM
C[C@@H](Oc1ccc2[nH]nc(-c3ccc(N4CC5(C4)CS(=O)(=O)C5)nc3)c2c1)c1c(Cl)cncc1Cl [Example 112]	FGFR3-BAIAP2L1 Ba/F3 cells (Homo sapiens, UniProt P22607)	1 to 20 nM

Recorded IC50 (compound C[C@@H](Oc1ccc2[nH]nc(-c3cnc(N4CCNCC4)nc3)c2c1)c1c(Cl)cncc1Cl [Example 11] ): 1 to 20 nM

Recorded IC50 (compound CCN1CC[C@@H](n2cc(-c3n[nH]c4ccc(O[C@H](C)c5c(Cl)cncc5Cl)cc34)cn2)C1 [Example 91] ): 1 to 20 nM

----------
Some molecules, each annotated with its measured Kd.
System: FGFR2 (Homo sapiens (Human), UniProt P21802)
Sequence (P21802 22-821): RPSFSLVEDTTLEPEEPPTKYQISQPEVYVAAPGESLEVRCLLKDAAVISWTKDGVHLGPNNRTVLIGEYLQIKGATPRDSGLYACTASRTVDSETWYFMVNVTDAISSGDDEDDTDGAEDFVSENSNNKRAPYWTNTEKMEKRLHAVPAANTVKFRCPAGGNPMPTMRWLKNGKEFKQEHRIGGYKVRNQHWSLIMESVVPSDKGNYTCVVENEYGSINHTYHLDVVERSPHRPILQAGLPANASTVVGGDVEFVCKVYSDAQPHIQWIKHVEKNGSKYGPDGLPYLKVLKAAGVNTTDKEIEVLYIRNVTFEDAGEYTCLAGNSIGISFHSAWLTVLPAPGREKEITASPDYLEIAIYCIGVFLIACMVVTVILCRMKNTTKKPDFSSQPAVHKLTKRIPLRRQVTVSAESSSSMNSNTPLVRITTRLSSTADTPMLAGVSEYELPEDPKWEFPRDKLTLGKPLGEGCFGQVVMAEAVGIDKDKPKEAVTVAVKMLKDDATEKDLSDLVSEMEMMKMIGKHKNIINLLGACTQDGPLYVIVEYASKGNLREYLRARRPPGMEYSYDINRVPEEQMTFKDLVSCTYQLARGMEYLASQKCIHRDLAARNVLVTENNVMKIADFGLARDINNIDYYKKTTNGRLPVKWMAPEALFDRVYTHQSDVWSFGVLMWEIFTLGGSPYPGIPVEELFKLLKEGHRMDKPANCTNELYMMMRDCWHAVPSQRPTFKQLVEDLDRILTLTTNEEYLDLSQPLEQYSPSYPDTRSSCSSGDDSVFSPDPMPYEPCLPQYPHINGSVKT
Method Summary: Kinase assay, binding constants (Kd), kinase-tagged T7 phage, qPCR

Structure Smiles String	System	Measurement
C[C@@H](Oc1ccc2[nH]nc(-c3cnc(N4CCC4)c(C#N)c3)c2c1)c1c(Cl)cnnc1Cl	FGFR2 (Homo sapiens (Human), UniProt P21802)	100 to 300 nM
C[C@@H](Oc1ccc2[nH]nc(-c3ccc(N4CC5(CN(CC(F)F)C5)C4)nc3)c2c1)c1c(Cl)cncc1Cl	FGFR2 (Homo sapiens (Human), UniProt P21802)	1 to 20 nM
COc1cc2[nH]nc(-c3cnc(N4CCC4)c(F)c3)c2cc1O[C@H](C)c1c(Cl)cncc1Cl	FGFR2 (Homo sapiens (Human), UniProt P21802)	20 to 100 nM

Recorded Kd (molecule C[C@@H](Oc1ccc2[nH]nc(-c3ccc(N4CC5(C4)CN(S(C)(=O)=O)C5)nc3)c2c1)c1c(Cl)cnc(F)c1Cl ): 20 to 100 nM

Recorded Kd (molecule C[C@@H](Oc1ccc2[nH]nc(-c3ccc(N4CC5(CCN5)C4)nc3)c2c1)c1c(Cl)cncc1Cl ): 1 to 20 nM

Recorded Kd (molecule Cc1ncc(Cl)c([C@@H](C)Oc2ccc3[nH]nc(-c4cnn(C5CCN(C)CC5)c4)c3c2)c1Cl ): 1 to 20 nM

Recorded Kd (molecule C[C@@H](Oc1ccc2[nH]nc(-c3ccc(N4CCN(C(N)=O)CC4)nc3)c2c1)c1c(Cl)cncc1Cl ): 1 to 20 nM

----------
Some compounds, each annotated with its measured Kd.
System: FGFR4 (Homo sapiens (Human))
Sequence (P22455 22-802): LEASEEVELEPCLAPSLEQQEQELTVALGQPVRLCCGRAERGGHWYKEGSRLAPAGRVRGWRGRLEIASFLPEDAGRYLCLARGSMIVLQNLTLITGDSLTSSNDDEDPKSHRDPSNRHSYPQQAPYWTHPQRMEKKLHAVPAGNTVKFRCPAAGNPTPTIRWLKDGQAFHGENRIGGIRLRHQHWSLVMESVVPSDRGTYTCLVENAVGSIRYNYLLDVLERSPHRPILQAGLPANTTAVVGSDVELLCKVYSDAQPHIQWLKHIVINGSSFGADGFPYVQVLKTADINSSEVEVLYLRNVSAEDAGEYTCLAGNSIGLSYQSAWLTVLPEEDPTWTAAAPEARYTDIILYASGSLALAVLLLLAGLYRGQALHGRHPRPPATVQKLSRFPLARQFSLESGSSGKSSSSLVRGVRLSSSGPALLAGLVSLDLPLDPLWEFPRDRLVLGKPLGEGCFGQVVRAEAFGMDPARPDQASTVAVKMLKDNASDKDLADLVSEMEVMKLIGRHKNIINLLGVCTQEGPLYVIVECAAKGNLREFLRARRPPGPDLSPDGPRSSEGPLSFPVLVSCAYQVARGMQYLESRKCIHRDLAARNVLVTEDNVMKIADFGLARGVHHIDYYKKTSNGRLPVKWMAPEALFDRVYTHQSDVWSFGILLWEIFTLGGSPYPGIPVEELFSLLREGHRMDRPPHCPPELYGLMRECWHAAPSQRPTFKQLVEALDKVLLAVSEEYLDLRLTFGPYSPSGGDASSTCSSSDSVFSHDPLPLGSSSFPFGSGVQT
Method Summary: Kinase assay, binding constants (Kd), kinase-tagged T7 phage, qPCR

Compound	System	Parameter	Measurement
COc1cc2[nH]nc(-c3cnc(N4CC5CC(C4)N5CC(C)(C)O)c(C)c3)c2cc1O[C@H](C)c1c(C)cnnc1C [Example 214]	FGFR4 (Homo sapiens (Human))	Kd	1 to 20 nM
Cc1cnnc(C)c1[C@@H](C)Oc1ccc2[nH]nc(-c3ccc(N4CCN5CCC[C@H]5C4)nc3)c2c1 [Example 174]	FGFR4 (Homo sapiens (Human))	Kd	1 to 20 nM
CCOC(=O)N1CCC2(CC1)CN(c1ncc(-c3n[nH]c4ccc(O[C@H](C)c5c(Cl)cncc5Cl)cc34)cn1)C2 [Example 126]	FGFR4 (Homo sapiens (Human))	Kd	1 to 20 nM

Recorded Kd (compound COC(=O)N1CCN(c2ccc(-c3n[nH]c4ccc(O[C@H](C)c5c(Cl)cncc5Cl)cc34)cn2)CC1 [Example 7] ): 1 to 20 nM

Recorded Kd (compound CCS(=O)(=O)N1CC2(CN(c3ccc(-c4n[nH]c5ccc(O[C@H](C)c6c(Cl)cncc6Cl)cc45)cn3)C2)C1 [Example 124] ): 1 to 20 nM

Recorded Kd (compound C[C@@H](Oc1ccc2[nH]nc(-c3cnc(N4CCC5(CCS(=O)(=O)C5)C4)nc3)c2c1)c1c(Cl)cncc1Cl (some centres unmarked) [Example 127] ): 1 to 20 nM

----------
System: UniProt P22455
Method Summary: Kinase assay, binding constants (Kd), kinase-tagged T7 phage, qPCR
Some compounds, each annotated with its measured Kd.

Guide cases for Kd, answers given:
Compound	Kd
C[C@@H](Oc1ccc2[nH]nc(-c3cnn(C4CCN(C(=O)CCN(C)C)CC4)c3)c2c1)c1c(Cl)cncc1Cl [Example 82]	20 to 100 nM
Cc1cnnc(C)c1[C@@H](C)Oc1ccc2[nH]nc(-c3ccc(N4CC5(CCOC5)C4)nc3)c2c1 [Example 206]	1 to 20 nM
C[C@@H](Oc1cc2c(-c3cnc(N4CC5(C4)CN(S(C)(=O)=O)C5)c(C#N)c3)n[nH]c2cc1Cl)c1c(Cl)cncc1Cl [Example 359]	1 to 20 nM

Recorded Kd (compound C[C@@H](Oc1ccc2[nH]nc(-c3cnc(N4CCN(C(=O)N(C)C)CC4)nc3)c2c1)c1c(Cl)cncc1Cl [Example 19] ): 1 to 20 nM

Recorded Kd (compound C[C@@H](Oc1ccc2[nH]nc(-c3ccc(N4CC5(C4)CN(S(C)(=O)=O)C5)nc3)c2c1)c1cc(F)cc(F)c1 [Example 172] ): 20 to 100 nM

Recorded Kd (compound Cc1cc(-c2n[nH]c3ccc(O[C@H](C)c4c(C)cnnc4C)cc23)cnc1N1CCN2C(=O)NCC2C1 (some centres unmarked) [Example 231] ): 1 to 20 nM

Recorded Kd (compound C[C@@H](Oc1ccc2[nH]nc(-c3ccc(N4CC5CC(C4)N5)nc3)c2c1)c1c(Cl)cncc1Cl [Example 16] ): 1 to 20 nM

Recorded Kd (compound C[C@@H](Oc1ccc2[nH]nc(-c3ccc(N4CCNC(=O)CC4)nc3)c2c1)c1c(Cl)cncc1Cl [Example 30] ): 1 to 20 nM

Recorded Kd (compound COc1cc2[nH]nc(-c3ccc(N4CCC4)nc3)c2cc1O[C@H](C)c1c(C)cnnc1C [Example 310] ): 1 to 20 nM

Recorded Kd (compound C[C@@H](Oc1ccc2[nH]nc(-c3ccc(N4CCCNC(=O)C4)nc3)c2c1)c1c(Cl)cncc1Cl [Example 35] ): 1 to 20 nM

Recorded Kd (compound C[C@@H](Oc1ccc2[nH]nc(-c3cnc(N4CC(C(F)F)C4)c(C#N)c3)c2c1)c1c(Cl)cncc1Cl [Example 345] ): 1 to 20 nM

Recorded Kd (compound C[C@@H](Oc1ccc2[nH]nc(-c3cnc(N4CC(C#N)C4)c(C#N)c3)c2c1)c1c(Cl)cncc1Cl [Example 348] ): 1 to 20 nM

Recorded Kd (compound COc1cc2[nH]nc(-c3cnc(N4CC5(CCS(=O)(=O)C5)C4)c(C#N)c3)c2cc1O[C@H](C)c1c(Cl)cncc1Cl [Example 339] ): 1 to 20 nM

Recorded Kd (compound COc1cc(-c2n[nH]c3ccc(O[C@H](C)c4c(C)cnnc4C)cc23)cnc1N1CCCC1 [Example 305] ): 20 to 100 nM

----------
Some molecules, each annotated with its measured IC50.
System: FGFR1-BCR Ba/F3 cells (Homo sapiens, UniProt P11362)
Sequence (P11362 22-822 limits assumed, change not shown): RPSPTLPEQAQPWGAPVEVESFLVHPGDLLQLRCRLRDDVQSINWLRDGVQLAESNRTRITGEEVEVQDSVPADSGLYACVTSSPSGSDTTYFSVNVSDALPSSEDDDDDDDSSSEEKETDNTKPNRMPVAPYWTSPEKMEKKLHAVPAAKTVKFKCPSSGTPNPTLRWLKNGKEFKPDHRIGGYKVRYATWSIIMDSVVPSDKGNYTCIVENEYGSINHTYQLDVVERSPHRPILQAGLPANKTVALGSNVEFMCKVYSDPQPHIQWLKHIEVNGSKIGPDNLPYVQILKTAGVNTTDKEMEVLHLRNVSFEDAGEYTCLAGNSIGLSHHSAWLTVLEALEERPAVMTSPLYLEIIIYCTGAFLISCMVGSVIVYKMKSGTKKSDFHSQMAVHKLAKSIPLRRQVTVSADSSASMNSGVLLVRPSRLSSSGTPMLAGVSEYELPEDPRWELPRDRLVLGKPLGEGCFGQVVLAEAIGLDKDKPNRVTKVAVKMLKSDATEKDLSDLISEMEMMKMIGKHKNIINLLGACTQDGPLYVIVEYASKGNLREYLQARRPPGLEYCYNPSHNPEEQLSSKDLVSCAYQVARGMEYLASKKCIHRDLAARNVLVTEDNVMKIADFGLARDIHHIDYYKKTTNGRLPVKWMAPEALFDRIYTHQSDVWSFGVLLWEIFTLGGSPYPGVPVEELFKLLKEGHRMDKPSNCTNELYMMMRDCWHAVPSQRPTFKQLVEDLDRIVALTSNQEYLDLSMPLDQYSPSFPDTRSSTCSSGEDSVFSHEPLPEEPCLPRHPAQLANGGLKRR
Method Summary: Ba/F3 cell viability assay (CellTiter-Glo 2.0), FGFR1-BCR Ba/F3
Format: cell-based
Experimental Parameters: read-out: Ba/F3 Cells FGFR1 (IC50 nM), 48 hours, Cell Titer Glo 2.0

Guide cases for IC50, answers given:
Structure Smiles String	System	IC50
C[C@@H](Oc1ccc2[nH]nc(-c3ccc(N4CCC5(CCNC5=O)CC4)nc3)c2c1)c1c(Cl)cncc1Cl	FGFR1-BCR Ba/F3 cells (Homo sapiens, UniProt P11362)	100 to 300 nM
C[C@@H](Oc1ccc2[nH]nc(-c3ccc(N4CCC5(CC4)CN(C)CC(=O)N5)nc3)c2c1)c1c(Cl)cncc1Cl	FGFR1-BCR Ba/F3 cells (Homo sapiens, UniProt P11362)	20 to 100 nM
C[C@@H](Oc1ccc2[nH]nc(-c3ccc(N4CCN(C(=O)N5CCOCC5)CC4)nc3)c2c1)c1c(Cl)cncc1Cl	FGFR1-BCR Ba/F3 cells (Homo sapiens, UniProt P11362)	20 to 100 nM
C[C@@H](Oc1ccc2[nH]nc(-c3cnc(N4CCC5(CCCN5C)CC4)nc3)c2c1)c1c(Cl)cncc1Cl	FGFR1-BCR Ba/F3 cells (Homo sapiens, UniProt P11362)	100 to 300 nM
C[C@@H](Oc1ccc2[nH]nc(-c3cnn(C4CCN(C(=O)N(C)C)CC4)c3)c2c1)c1c(Cl)cncc1Cl	FGFR1-BCR Ba/F3 cells (Homo sapiens, UniProt P11362)	20 to 100 nM

Recorded IC50 (molecule C[C@@H](Oc1ccc2[nH]nc(-c3ccc(N4CCN(C(=O)N(C)C)CC4)nc3)c2c1)c1c(Cl)cncc1Cl ): 100 to 300 nM

Recorded IC50 (molecule C[C@@H](Oc1ccc2[nH]nc(-c3ccc(N4CC5(CCN5C)C4)nc3)c2c1)c1c(Cl)cncc1Cl ): 20 to 100 nM
